Test system: SGK2
Settings: concentration: 1 μM, replicates: in singlicate; n = 1;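 also: KINOMEscan kinase panel screen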
In this section we review reported %Inh values for a set of compounds.

>  <COMPOUND>
Clc1cc(Cl)cc(Nc2ccnc(Nc3cc(Cl)cc(Cl)c3)n2)c1

>  <%Inh>
0%

$$$$
>  <COMPOUND>
O=C(Nc1n[nH]c2nc(-c3nccs3)c(Br)cc12)C1CCCC1

>  <%Inh>
0%

$$$$
>  <COMPOUND>
O=C(Nc1n[nH]c2nc(-c3nccs3)c(Br)cc12)C1CC1

>  <%Inh>
12%

$$$$
>  <COMPOUND>
Cc1c(O)cccc1Nc1ccnc2ccc(C(F)(F)F)cc12.Cl

>  <%Inh>
0%

$$$$
>  <COMPOUND>
COc1cc2ncnc(Nc3ccc4nc(-c5ccccc5)[nH]c4c3)c2cc1OC.Cl

>  <%Inh>
0%

$$$$
>  <COMPOUND>
Cl.NC(=O)c1cccc(Nc2nccc(Nc3ccc(Oc4cccc(Cl)c4)c(Cl)c3)n2)c1

>  <%Inh>
0%

$$$$
>  <COMPOUND>
Cc1cc(NCC(c2ccccc2)c2ccccc2)nc(NCc2ccc(C(F)(F)F)cc2)n1

>  <%Inh>
0%

$$$$
>  <COMPOUND>
CC(C)(C)c1ccc(C(=O)Nc2cn3cc(Cl)ccc3n2)cc1

>  <%Inh>
6%

$$$$
>  <COMPOUND>
Cc1ccc(NC(=O)Nc2cccc(Cl)c2)cc1-c1ccc(C(=O)Nc2ccncc2)cc1

>  <%Inh>
0%

$$$$
>  <COMPOUND>
Cn1cncc1-c1ccc2ncnc(Nc3ccc(OCc4ccccc4)cc3)c2c1

>  <%Inh>
0%

$$$$
>  <COMPOUND>
O=C(Nc1n[nH]c2cc(-c3cccc(F)c3F)ccc12)C1CC1

>  <%Inh>
29%

$$$$
>  <COMPOUND>
COC(=O)c1c(-c2ccccc2)c2cc(C(=O)O)ccc2c(=O)n1Cc1ccccc1

>  <%Inh>
25%

$$$$
>  <COMPOUND>
COc1cc2nccc(Nc3ccc(NC(=O)c4ccc(C)cc4)c(O)c3)c2cc1OC.Cl

>  <%Inh>
5%

$$$$
>  <COMPOUND>
Cc1nnc(-c2ccc3occ(-c4ccc(S(C)=O)cc4)c3c2)[nH]1 (stereo not shown)

>  <%Inh>
5%

$$$$
>  <COMPOUND>
COc1cc2ncn(-c3cc(OCC4CCCO4)c(C(N)=O)s3)c2cc1OC (stereo not shown)

>  <%Inh>
0%

$$$$
>  <COMPOUND>
CCn1c(-c2ccccn2)nc2cnccc21

>  <%Inh>
2%

$$$$
>  <COMPOUND>
Fc1cccc(COc2nnc(-c3ccc4c(c3)CCO4)o2)c1

>  <%Inh>
0%

$$$$
>  <COMPOUND>
COc1ccc(Nc2nccc(-c3cccc(NC(=O)c4cc5cc(F)ccc5[nH]4)c3)n2)cc1

>  <%Inh>
0%

$$$$
>  <COMPOUND>
CCCc1ccc(S(=O)(=O)NC2CCN(c3ccnc(Nc4ccc(F)cc4)n3)C2)cc1 (stereo not shown)

>  <%Inh>
0%

$$$$

###

Test system: CAMK2D
Settings: concentration: 1 μM, replicates: in singlicate; n = 1
Consider the following compounds and their measured %Inh readings.

>  <COMPOUND>
O=C(O)COc1ncnc2cc(-c3ccc4[nH]ncc4c3)sc12

>  <%Inh [%]>
26

$$$$
>  <COMPOUND>
Cc1ccccc1-n1cnc2c(N)ncnc21

>  <%Inh [%]>
4

$$$$
>  <COMPOUND>
NC(=O)c1nnc2ccccc2c1N

>  <%Inh [%]>
7

$$$$
>  <COMPOUND>
COc1cc2ncn(-c3cc(OCC4CCCO4)c(C(N)=O)s3)c2cc1OC (centres unmarked)

>  <%Inh [%]>
0

$$$$
>  <COMPOUND>
Cc1cccc(-c2nc(Nc3ccc4[nH]ncc4c3)c3ccccc3n2)n1

>  <%Inh [%]>
0

$$$$
>  <COMPOUND>
CCCc1ccc(S(=O)(=O)NC2CCN(c3ccnc(Nc4ccc(F)cc4)n3)C2)cc1 (centres unmarked)

>  <%Inh [%]>
0

$$$$
>  <COMPOUND>
Fc1cc(Cl)ccc1Nc1ccnc2cc(I)ccc12

>  <%Inh [%]>
1

$$$$
>  <COMPOUND>
O=C(Nc1n[nH]c2nc(-c3nccs3)c(Br)cc12)C1CCCC1

>  <%Inh [%]>
15

$$$$
>  <COMPOUND>
COc1cc2nccc(Nc3ccc(NC(=O)c4ccc(C)cc4)c(O)c3)c2cc1OC.Cl

>  <%Inh [%]>
17

$$$$
>  <COMPOUND>
CS(=O)(=O)c1ccc(-c2c(-c3ncn[nH]3)sc(N3CCOCC3)c2C#N)cc1

>  <%Inh [%]>
6

$$$$
>  <COMPOUND>
COC(=O)c1c(-c2ccccc2)c2cc(OC)ccc2c(=O)n1Cc1ccccc1

>  <%Inh [%]>
13

$$$$
>  <COMPOUND>
Cn1ccc2ncnc(Oc3ccc(Nc4nc5ccccc5[nH]4)cc3)c21

>  <%Inh [%]>
2

$$$$
>  <COMPOUND>
CN1C(=O)C(Nc2ccc(Cl)c(C(=O)O)c2)=C(c2ccc(Cl)cc2)C1=O

>  <%Inh [%]>
0

$$$$
>  <COMPOUND>
O=C(Nc1ccccc1)Nc1cccc(Oc2ccc3nccn3n2)c1

>  <%Inh [%]>
0

$$$$
>  <COMPOUND>
Cc1csc(-c2nc(Nc3ccncc3)c3ccccc3n2)n1

>  <%Inh [%]>
17

$$$$
>  <COMPOUND>
COc1ccc(C2=C(Nc3cccc(C(=O)O)c3)C(=O)NC2=O)cc1

>  <%Inh [%]>
16

$$$$
>  <COMPOUND>
Cc1c(Cn2ccn3c(=O)cc(N4CCOCC4)nc23)cccc1C(F)(F)F

>  <%Inh [%]>
18

$$$$
>  <COMPOUND>
COc1cccc(-c2cc(-c3c[nH]nc3-c3ccccn3)ccn2)c1

>  <%Inh [%]>
16

$$$$
>  <COMPOUND>
Cc1ccc(-c2cc(-c3c[nH]nc3-c3ccccn3)ccn2)cc1

>  <%Inh [%]>
16

$$$$
>  <COMPOUND>
Nc1nc(-c2nccs2)c(-c2ccnc3ccccc23)s1

>  <%Inh [%]>
0

$$$$

###

System: EPHA3
Details: concentration: 1 μM, replicates: in singlicate; n = 1

>  <COMPOUND>
Cc1ccc(NC(=O)Nc2cc(C(C)(C)C)nn2-c2ccccc2)cc1 [GSK1014915]

>  <ASSAY_SYSTEM>
EPHA3

>  <%Inh / %>
0

$$$$
>  <COMPOUND>
COc1cc2ncn(-c3cc(OCC4CCCO4)c(C(N)=O)s3)c2cc1OC (centres unmarked) [GSK204607]

>  <ASSAY_SYSTEM>
EPHA3

>  <%Inh / %>
16

$$$$
>  <COMPOUND>
Cc1cccc(-c2nc(Nc3ccncc3)c3ccccc3n2)n1 [GW855857]

>  <ASSAY_SYSTEM>
EPHA3

>  <%Inh / %>
0

$$$$
>  <COMPOUND>
Cn1cncc1-c1ccc2ncnc(Nc3ccc(OCc4ccccc4)cc3)c2c1 [GW320571]

>  <ASSAY_SYSTEM>
EPHA3

>  <%Inh / %>
0

$$$$
>  <COMPOUND>
Cc1ccccc1-n1cnc2c(N)ncnc21 [SKF-97510]

>  <ASSAY_SYSTEM>
EPHA3

>  <%Inh / %>
0

$$$$
>  <COMPOUND>
O=C(Nc1n[nH]c2cc(-c3cccc(F)c3F)ccc12)C1CC1 [SB-733894]

>  <ASSAY_SYSTEM>
EPHA3

>  <%Inh / %>
18

$$$$
>  <COMPOUND>
Cc1ccc(-c2cc(-c3c[nH]nc3-c3ccccn3)ccn2)cc1 [GW684088]

>  <ASSAY_SYSTEM>
EPHA3

>  <%Inh / %>
49

$$$$
>  <COMPOUND>
COc1ccc2nc(-c3cccc(C)n3)nc(Nc3ccncc3)c2c1 [GSK204919]

>  <ASSAY_SYSTEM>
EPHA3

>  <%Inh / %>
0

$$$$
>  <COMPOUND>
O=S(=O)(c1ccc(-c2ccnc3[nH]ccc23)cc1)N1CCCC1 [GSK846226]

>  <ASSAY_SYSTEM>
EPHA3

>  <%Inh / %>
11

$$$$
>  <COMPOUND>
NC(=O)c1nnc2ccccc2c1N

>  <ASSAY_SYSTEM>
EPHA3

>  <%Inh / %>
0

$$$$
>  <COMPOUND>
Cc1nnc(-c2ccc3occ(-c4ccc(S(C)=O)cc4)c3c2)[nH]1 (centres unmarked)

>  <ASSAY_SYSTEM>
EPHA3

>  <%Inh / %>
0

$$$$
>  <COMPOUND>
O=C(Nc1n[nH]c2nc(-c3nccs3)c(Br)cc12)C1CC1 [SB-742251]

>  <ASSAY_SYSTEM>
EPHA3

>  <%Inh / %>
0

$$$$
>  <COMPOUND>
Cc1cc(-c2ccc3c(c2)CC[C@@H](N[C@@H](C)c2ccccc2)C3)cnc1N.Cl [GW412617]

>  <ASSAY_SYSTEM>
EPHA3

>  <%Inh / %>
0

$$$$
>  <COMPOUND>
O=C(Nc1ccc2c(c1)OCO2)NC1CCN(c2ccnc(Nc3ccc(F)cc3)n2)C1 (centres unmarked) [GSK1379724]

>  <ASSAY_SYSTEM>
EPHA3

>  <%Inh / %>
0

$$$$
>  <COMPOUND>
Cc1cccc(-c2nc(-c3ccc(S(C)(=O)=O)cc3)sc2-c2ccnc(NCCc3ccccc3)c2)c1

>  <ASSAY_SYSTEM>
EPHA3

>  <%Inh / %>
9

$$$$
>  <COMPOUND>
Cc1cccc(-c2nc(Nc3cccc(C(N)=O)c3)c3ccccc3n2)n1 [GW876019]

>  <ASSAY_SYSTEM>
EPHA3

>  <%Inh / %>
0

$$$$
>  <COMPOUND>
Cc1cc(N2Cc3ccccc3C2)nc(Nc2ccc(S(=O)(=O)N3CCOCC3)cc2)n1.Cl [GSK1669917]

>  <ASSAY_SYSTEM>
EPHA3

>  <%Inh / %>
0

$$$$
>  <COMPOUND>
Clc1cc(Cl)cc(Nc2ccnc(Nc3cc(Cl)cc(Cl)c3)n2)c1 [GSK175726]

>  <ASSAY_SYSTEM>
EPHA3

>  <%Inh / %>
21

$$$$
>  <COMPOUND>
CCn1c(-c2cccnc2O)nc2cnccc21 [SB-736715]

>  <ASSAY_SYSTEM>
EPHA3

>  <%Inh / %>
0

$$$$
>  <COMPOUND>
Nc1nc(-c2nccs2)c(-c2ccnc3ccccc23)s1 [GW693542]

>  <ASSAY_SYSTEM>
EPHA3

>  <%Inh / %>
0

$$$$
